- test.system: Transient receptor potential cation channel subfamily V member 1 (Homo sapiens, UniProt Q8NER1)
- Sequence (Q8NER1 whole entry): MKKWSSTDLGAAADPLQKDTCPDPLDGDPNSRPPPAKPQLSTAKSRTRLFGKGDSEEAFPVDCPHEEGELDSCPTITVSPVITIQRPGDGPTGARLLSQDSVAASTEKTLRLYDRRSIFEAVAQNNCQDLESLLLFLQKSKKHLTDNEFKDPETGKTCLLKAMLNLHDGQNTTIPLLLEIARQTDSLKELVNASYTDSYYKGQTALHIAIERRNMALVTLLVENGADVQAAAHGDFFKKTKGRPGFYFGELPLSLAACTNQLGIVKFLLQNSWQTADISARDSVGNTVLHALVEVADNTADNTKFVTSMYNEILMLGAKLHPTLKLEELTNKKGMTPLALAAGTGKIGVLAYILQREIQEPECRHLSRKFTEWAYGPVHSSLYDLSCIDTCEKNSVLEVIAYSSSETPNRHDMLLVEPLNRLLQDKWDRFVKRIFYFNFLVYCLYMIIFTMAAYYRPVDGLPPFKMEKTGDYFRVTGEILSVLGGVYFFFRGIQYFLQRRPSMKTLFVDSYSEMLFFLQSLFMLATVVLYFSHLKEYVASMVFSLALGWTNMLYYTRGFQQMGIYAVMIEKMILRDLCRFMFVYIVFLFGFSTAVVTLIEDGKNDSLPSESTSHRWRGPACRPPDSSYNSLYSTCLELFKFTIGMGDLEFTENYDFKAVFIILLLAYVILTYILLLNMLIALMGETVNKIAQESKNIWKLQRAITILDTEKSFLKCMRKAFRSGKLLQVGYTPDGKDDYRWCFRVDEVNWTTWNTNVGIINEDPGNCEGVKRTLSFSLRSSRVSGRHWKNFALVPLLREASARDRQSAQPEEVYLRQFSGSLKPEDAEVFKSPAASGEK
- assay.notes: Antagonist activity at recombinant human TRPV1 expressed in HEK293 cells assessed as inhibition of capsaicin-induced Ca2+ influx preincubated for 5 mins followed by capsaicin challenge
endpoint.label: IC50 (nM)

Examples from the recorded data:
CC(C)(O)c1ccccc1-c1ccc2[nH]c(C#Cc3ccccc3)nc2c1 : 2.8
CC(C)(O)c1ccccc1-c1ccc2[nH]c(/C=C/c3ccc(Cl)cc3)nc2c1 : 5.7
CS(=O)(=O)Nc1ccccc1-c1ccc2[nH]c(/C=C/c3ccc(C(F)(F)F)cc3)nc2c1 : 10
CC(C)(O)c1ccccc1-c1ccc2[nH]c(C#Cc3ccc(C(F)(F)F)cc3)nc2c1 : 4.5
CC(C)c1ccc(/C=C/c2nc3cc(-c4ccccc4NS(C)(=O)=O)ccc3[nH]2)cc1 : 9.2

(I) CS(=O)(=O)Nc1ccccc1-c1ccc2[nH]c(/C=C/c3ccc(OC(F)(F)F)cc3)nc2c1
(II) CC(C)(C)c1ccc(/C=C/c2nc3cc(-c4ccccc4C(N)=O)ccc3[nH]2)cc1
Input line: // pick min by IC50: I , II Refer to your chosen item by its label in the answer.
Output line: I
